Each entry below carries its reported shrunken log2 fold change.
# Test system: Escherichia coli TOP10
# Test summary: shrunken log2 fold change of peptide-encoding DNA abundance (4.5 h post-induction vs induction); higher = less antimicrobial activity (less host growth inhibition)
# Condition: time post-induction: 4.5 h; library: site-saturation at positions 5, 18, 19, 20
Form rule: numeric answer, no unit written next to it.

Problem: Retrieve shrunken log2 fold change measured for RRIRARPPRLPRPRPRPKVLPRP and print it.
Result: 0.269

----------
# System: Escherichia coli TOP10
# Test summary: shrunken log2 fold change of peptide-encoding DNA abundance (4.5 h post-induction vs induction); higher = less antimicrobial activity (less host growth inhibition)
# Condition: time post-induction: 4.5 h; library: site-saturation at positions 5, 18, 19, 20
Property: shrunken log2 fold change

Sequence record	Obs value
RRIRWRPPRLPRPRPRPGGHPRP	0.494

Problem: Report measured shrunken log2 fold change on Escherichia coli TOP10; entry: RRIRARPPRLPRPRPRPLWIPRP
Result: -0.0129

Problem: Answer with shrunken log2 fold change of RRIRYRPPRLPRPRPRPTNCPRP measured for Escherichia coli TOP10.
Result: -1.27

Problem: Give Escherichia coli TOP10 shrunken log2 fold change for the following sequence: RRIRERPPRLPRPRPRPDTYPRP
Result: 0.0491

Problem: Lab note: Escherichia coli TOP10 assay, enter shrunken log2 fold change for RRIRHRPPRLPRPRPRPPMAPRP here
Result: 0.197

Problem: Supply shrunken log2 fold change measured with Escherichia coli TOP10 for RRIRKRPPRLPRPRPRPPGKPRP .
Result: 0.756

Problem: Report measured shrunken log2 fold change on Escherichia coli TOP10; entry: RRIRDRPPRLPRPRPRPLWYPRP
Result: -0.421

Problem: Name the value of shrunken log2 fold change reported for RRIRPRPPRLPRPRPRPFKHPRP when tested on Escherichia coli TOP10.
Result: 0.0339

Problem: For Escherichia coli TOP10, give shrunken log2 fold change of the listed sequence: RRIRFRPPRLPRPRPRPSWYPRP
Result: -0.401

Problem: Quote shrunken log2 fold change with test system Escherichia coli TOP10 for RRIRFRPPRLPRPRPRPYMSPRP
Result: -0.401

Problem: Give measured shrunken log2 fold change for RRIRKRPPRLPRPRPRPFGYPRP (Escherichia coli TOP10).
Result: -0.0856

Problem: GET shrunken log2 fold change | system: Escherichia coli TOP10 | item: RRIRTRPPRLPRPRPRPRYQPRP
Result: -0.0799

----------
Each entry below lists one item and its recorded shrunken log2 fold change value.
# Tested on: Escherichia coli TOP10
# Test summary: shrunken log2 fold change of peptide-encoding DNA abundance (4.5 h post-induction vs induction); higher = less antimicrobial activity (less host growth inhibition)
# Condition: time post-induction: 4.5 h; library: site-saturation at positions 5, 18, 19, 20
Quick one: just the number, no unit, thanks!

Sequence record	Study target	Obs value
RRIRPRPPRLPRPRPRPKITPRP	Escherichia coli TOP10	-0.105
RRIRKRPPRLPRPRPRPFLVPRP	Escherichia coli TOP10	0.00497

Pending sequence:
Problem: Indicate the recorded shrunken log2 fold change value for this sequence: RRIRFRPPRLPRPRPRPYHDPRP
Result: -0.722

----------
# System: Escherichia coli TOP10;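 note: peptides expressed intracellularly from a pBAD plasmid library in pooled LB shake-flask culture, induced with 0.3% L-arabinose, DNA abundance read by NGS, three biological replicates, DESeq2 with apeglm shrinkage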
# Test summary: shrunken log2 fold change of peptide-encoding DNA abundance (4.5 h post-induction vs induction); higher = less antimicrobial activity (less host growth inhibition)
# Condition: time post-induction: 4.5 h; library: site-saturation at positions 5, 18, 19, 20
# shrunken log2 fold change per entry
Answer as a number with no unit attached.

Sequence record	Property	Obs value
RRIRVRPPRLPRPRPRPYGHPRP	shrunken log2 fold change	-0.0167
RRIRSRPPRLPRPRPRPRGAPRP	shrunken log2 fold change	0.737
RRIRQRPPRLPRPRPRPKMFPRP	shrunken log2 fold change	0.106
RRIRIRPPRLPRPRPRPGKRPRP	shrunken log2 fold change	0.0192
RRIRGRPPRLPRPRPRPWMPPRP	shrunken log2 fold change	0.105
RRIRVRPPRLPRPRPRPTTVPRP	shrunken log2 fold change	-0.241

Problem: Using known records, supply shrunken log2 fold change for RRIRHRPPRLPRPRPRPRNFPRP
Result: 0.134

Problem: Answer with the recorded shrunken log2 fold change for the sequence listed here: RRIRKRPPRLPRPRPRPNQCPRP
Result: 0.0387

Problem: // Input: RRIRYRPPRLPRPRPRPVCAPRP . Output its shrunken log2 fold change only.
Result: -0.232

Problem: Give the measured shrunken log2 fold change for RRIRPRPPRLPRPRPRPQDEPRP
Result: 0.0996

Problem: Look up and state reported shrunken log2 fold change for RRIRVRPPRLPRPRPRPQSKPRP
Result: -0.172

Problem: Indicate the recorded shrunken log2 fold change value for this sequence: RRIRNRPPRLPRPRPRPWCYPRP
Result: -0.428

Problem: Supply recorded shrunken log2 fold change for RRIRNRPPRLPRPRPRPHTVPRP here.
Result: -0.118
